Biological target: T1, rat GLP-1 receptor (rat, UniProt P32301 22-463)
T1 sequence (looked up): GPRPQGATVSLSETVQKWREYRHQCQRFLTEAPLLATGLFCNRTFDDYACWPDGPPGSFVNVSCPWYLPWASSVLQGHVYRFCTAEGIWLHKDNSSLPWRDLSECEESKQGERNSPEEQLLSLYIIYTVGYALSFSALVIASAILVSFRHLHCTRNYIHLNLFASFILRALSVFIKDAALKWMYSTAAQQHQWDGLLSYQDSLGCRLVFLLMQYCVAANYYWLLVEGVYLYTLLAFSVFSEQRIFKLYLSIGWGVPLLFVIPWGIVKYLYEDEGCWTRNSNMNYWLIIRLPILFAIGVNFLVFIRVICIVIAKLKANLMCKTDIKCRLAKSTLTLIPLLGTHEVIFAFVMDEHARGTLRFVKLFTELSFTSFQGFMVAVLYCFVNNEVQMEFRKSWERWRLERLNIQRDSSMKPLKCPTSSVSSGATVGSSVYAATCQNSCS
Assay: cell-based or functional assay
OBSERVED PROPERTY: cAMP EC50 (pM)
Give bare numbers, in pM.

Provide each entry's cAMP EC50 from the list below.
1. IP259 (Fc fusion) YSEGTFTSDYSKLLEKEAVRLFIEWLVKGPGGGGGSGGGGSGGGGSGGGGSATHTCPPCPAPEF
2. IP292 (Fc fusion) YSEGTFTSDYSKLLEEEAVRCFIEWLVKGGPGGGAPPCGGGGGGGGGGGGGGGGGGGACPPC
3. IP371 (Fc fusion) YSEGMHTSDLSKLLEEEAVRLFIEWLLAGGGGGGGSGGGGSGGGGSGGGGSACPPC
4. IP322 (Fc fusion) YSEGTFTSDYSKLLEEEAVRLFIEWLVKGPGGGGGSGGGGSGGGGSGGGGSGGGGSA

Key:
[29, 37, 1100, 25]
